Target Or Test System: T1, GST-fused ligand-binding domain of human estrogen receptor β (amino acids 263–530) (human, UniProt Q92731 263-530)
T1 construct: cDNA from OriGene Technologies; Subcloned into pGEX-6p-1; Captured on the chip through an anti-GST antibody; Incubated beforehand with 10 μM E2 or 10 μM BPC (small molecules) in two of the three SPR conditions; also called GST-ERβ-LBD; ERβ-LBD; source: E. coli BL21α, purified (Glutathione-Sepharose 4B, gel filtration on Sephadex G-10)
T1 sequence (Q92731 263-530): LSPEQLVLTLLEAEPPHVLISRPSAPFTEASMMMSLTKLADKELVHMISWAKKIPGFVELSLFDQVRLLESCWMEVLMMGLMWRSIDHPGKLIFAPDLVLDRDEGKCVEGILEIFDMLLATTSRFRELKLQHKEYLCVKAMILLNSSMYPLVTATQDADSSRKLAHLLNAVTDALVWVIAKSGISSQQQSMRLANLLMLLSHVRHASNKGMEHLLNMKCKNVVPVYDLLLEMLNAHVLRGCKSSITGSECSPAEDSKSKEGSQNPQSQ
Assay Explanation: SPR; Biacore T100; GST-ERβ-LBD incubated with 10 μM E2 for 1 h, captured on anti-GST antibody on a CM5 chip at 25 °C; SRC1 peptide injected with E2; HBS-EP+ buffer (0.01 M Hepes pH 7.4, 0.15 M NaCl, 3 mM EDTA, 0.05% Surfactant P20)
Experimental Setup: both partners purified
Property Name: pKd
As a rule, pKd stands for the negative log10 of the concentration, concentration in M.

(Q) For the binder ERHKILHRLLQEG (source: synthetic peptide (ABI 433A, solid phase, Fmoc chemistry)) [SRC1 peptide (amino acids 685–697) derived from human nuclear receptor coactivator 1] , report pKd.
(A) 5.48
